Recorded measurements of background-corrected fluorescence, one per entry
# PROCEDURE TEXT: background-corrected fluorescence of 3'-dye-labeled ssDNA relative to brightest sequence (3'-GCGCG) (fraction); higher = brighter dye fluorescence (less quenching)
# CONDITIONS: dye: Cy3 (3' terminal)
READOUT LABEL: background-corrected fluorescence

1. TTTTTTCATGATCATGAGCATTTTTTTTTTTTTTTGCGCT [TCGCG]
0.623
2. TTTTTTGATCAGCATGCTCATTTTTTTTTTTTTTTCGTAG [GATGC]
0.615
3. TTTTTTGAGCATCATCATGATTTTTTTTTTTTTTTCTGGC [CGGTC]
0.533
4. TTTTTGCATCATGATGCTCATTTTTTTTTTTTTTTTGCAG [GACGT]
0.526
5. TTTTTTGAGCATGATGATCATTTTTTTTTTTTTTTCTCCG [GCCTC]
0.531
6. TTTTTTGCTGCGCAGCAGCATTTTTTTTTTTTTTTAATTT
0.559
7. TTTTTGCAGCATGCGCAGCATTTTTTTTTTTTTTTTTATT
0.524
8. TTTTTTCATCATGCTGATCATTTTTTTTTTTTTTTGGACG [GCAGG]
0.567
9. TTTTTTGCTGATCAGCAGCATTTTTTTTTTTTTTTACGTT [TTGCA]
0.552
10. TTTTTTGATGAGCATCATCATTTTTTTTTTTTTTTCCTGG [GGTCC]
0.557

---

# PROCEDURE TEXT: background-corrected fluorescence of 3'-dye-labeled ssDNA relative to brightest sequence (3'-GCGCG) (fraction); higher = brighter dye fluorescence (less quenching)
# CONDITIONS: dye: Cy3 (3' terminal)
Below, each of the sequences is paired with its reported background-corrected fluorescence value.
READOUT LABEL: background-corrected fluorescence

1. TTTTTTGATGAGCATGCGCATTTTTTTTTTTTTTTCCTAT [TATCC]
0.486
2. TTTTTTGATCATGATGAGCATTTTTTTTTTTTTTTCGCCT [TCCGC]
0.488
3. TTTTTTGATGAGCATGCTCATTTTTTTTTTTTTTTCCTAG [GATCC]
0.532
4. TTTTTTCATCATGCGCATGCTTTTTTTTTTTTTTTGGATA [ATAGG]
0.582
5. TTTTTTGCTCATCATGATCATTTTTTTTTTTTTTTAGGCG [GCGGA]
0.633
6. TTTTTTCATCATCAGCATGCTTTTTTTTTTTTTTTGGGTA [ATGGG]
0.614
7. TTTTTTGCTGCTCATGCTCATTTTTTTTTTTTTTTAAGAG [GAGAA]
0.607
8. TTTTTTCATGATGATGCGCATTTTTTTTTTTTTTTGCCAT [TACCG]
0.516
9. TTTTTTGCGCAGCATGATGATTTTTTTTTTTTTTTATTCC [CCTTA]
0.404
10. TTTTTTGCTCAGCATGCGCATTTTTTTTTTTTTTTAGTAT [TATGA]
0.554
11. TTTTTGCATCATGATGATGCTTTTTTTTTTTTTTTTGCCA [ACCGT]
0.519

---

# PROCEDURE TEXT: background-corrected fluorescence of 3'-dye-labeled ssDNA relative to brightest sequence (3'-GCGCG) (fraction); higher = brighter dye fluorescence (less quenching)
# CONDITIONS: dye: Cy3 (3' terminal)
READOUT LABEL: background-corrected fluorescence

1) TTTTTTGCTCAGCAGCATCATTTTTTTTTTTTTTTAGTTG [GTTGA]
0.516
2) TTTTTTCATCAGCATGCGCATTTTTTTTTTTTTTTGGTAT [TATGG]
0.525
3) TTTTTTGATGCTGCTGCGCATTTTTTTTTTTTTTTCAAAT [TAAAC]
0.553
4) TTTTTTGATGCTCATGCTGCTTTTTTTTTTTTTTTCAGAA [AAGAC]
0.609
5) TTTTTTCATGATGATCATGCTTTTTTTTTTTTTTTGCCGA [AGCCG]
0.621

---

# PROCEDURE TEXT: background-corrected fluorescence of 3'-dye-labeled ssDNA relative to brightest sequence (3'-GCGCG) (fraction); higher = brighter dye fluorescence (less quenching)
# CONDITIONS: dye: Cy5 (3' terminal)
READOUT LABEL: background-corrected fluorescence

1. TTTTTTGCTGATGCTCATGCTTTTTTTTTTTTTTTACAGA [AGACA]
0.459
2. TTTTTTGCTCATGATCATCATTTTTTTTTTTTTTTAGCGG [GGCGA]
0.577
3. TTTTTTGCTCATGATCATGATTTTTTTTTTTTTTTAGCGC [CGCGA]
0.523
4. TTTTTGCATGATGATGAGCATTTTTTTTTTTTTTTTCCCT
0.317
5. TTTTTGCATCATCATGATGCTTTTTTTTTTTTTTTTGGCA [ACGGT]
0.472
6. TTTTTTGCTGATGCTGCTGATTTTTTTTTTTTTTTACAAC [CAACA]
0.302
7. TTTTTGCATGCTCATGAGCATTTTTTTTTTTTTTTTAGCT [TCGAT]
0.42
8. TTTTTTCAGCATGAGCATGATTTTTTTTTTTTTTTGTCTC [CTCTG]
0.33
9. TTTTTTGATGCTCATGATGCTTTTTTTTTTTTTTTCAGCA [ACGAC]
0.448
10. TTTTTGCATGCTGCTGAGCATTTTTTTTTTTTTTTTAACT [TCAAT]
0.353
11. TTTTTTGCGCATCAGCAGCATTTTTTTTTTTTTTTATGTT [TTGTA]
0.432

---

# PROCEDURE TEXT: background-corrected fluorescence of 3'-dye-labeled ssDNA relative to brightest sequence (3'-GCGCG) (fraction); higher = brighter dye fluorescence (less quenching)
# CONDITIONS: dye: Cy3 (3' terminal)
// thresholds for background-corrected fluorescence classes: A: < 0.5; B: ≥ 0.5 and < 0.6; C: ≥ 0.6

1. TTTTTGCATGAGCATGATGATTTTTTTTTTTTTTTTCTCC [CCTCT]
A
2. TTTTTGCATGCTGATGAGCATTTTTTTTTTTTTTTTACCT [TCCAT]
A
3. TTTTTTCATGCTGCTGCTCATTTTTTTTTTTTTTTGAAAG
B
4. TTTTTTGATCATCATCATGCTTTTTTTTTTTTTTTCGGGA [AGGGC]
C
5. TTTTTTGATCATGATGCTGCTTTTTTTTTTTTTTTCGCAA [AACGC]
B
6. TTTTTTGCGCATCATGATGATTTTTTTTTTTTTTTATGCC [CCGTA]
A
7. TTTTTTGCGCATGCGCATGCTTTTTTTTTTTTTTTATATA
B
8. TTTTTGCATGATCATCATCATTTTTTTTTTTTTTTTCGGG [GGGCT]
C
9. TTTTTGCAGCATGATCATGCTTTTTTTTTTTTTTTTTCGA [AGCTT]
C
10. TTTTTTGATGATGCTCATGCTTTTTTTTTTTTTTTCCAGA [AGACC]
C
11. TTTTTTCATCATGAGCAGCATTTTTTTTTTTTTTTGGCTT [TTCGG]
B
12. TTTTTTCATCAGCAGCATCATTTTTTTTTTTTTTTGGTTG [GTTGG]
B
13. TTTTTGCATCATGCGCATGCTTTTTTTTTTTTTTTTGATA [ATAGT]
B
14. TTTTTTCATGCGCATCATCATTTTTTTTTTTTTTTGATGG [GGTAG]
C
15. TTTTTGCAGCATGCGCATCATTTTTTTTTTTTTTTTTATG [GTATT]
A
16. TTTTTTGCTCATGATCATGATTTTTTTTTTTTTTTAGCGC [CGCGA]
C
17. TTTTTTGCTGATGCGCATGATTTTTTTTTTTTTTTACATC [CTACA]
A
18. TTTTTTGCTGCTCATGAGCATTTTTTTTTTTTTTTAAGCT [TCGAA]
B
19. TTTTTGCATGCTGCTCAGCATTTTTTTTTTTTTTTTAAGT [TGAAT]
C
20. TTTTTTCAGCAGCATGCTGATTTTTTTTTTTTTTTGTTAC [CATTG]
A
21. TTTTTGCATGATCATCAGCATTTTTTTTTTTTTTTTCGGT [TGGCT]
C
22. TTTTTTGCTCAGCATCATCATTTTTTTTTTTTTTTAGTGG [GGTGA]
C
23. TTTTTTGAGCAGCAGCATGATTTTTTTTTTTTTTTCTTTC
A
24. TTTTTTCATGATGCTCATCATTTTTTTTTTTTTTTGCAGG [GGACG]
C
25. TTTTTTGCGCATGCTCATGATTTTTTTTTTTTTTTATAGC [CGATA]
B

---

# PROCEDURE TEXT: background-corrected fluorescence of 3'-dye-labeled ssDNA relative to brightest sequence (3'-GCGCG) (fraction); higher = brighter dye fluorescence (less quenching)
# CONDITIONS: dye: Cy3 (3' terminal)
We begin with a simple list: items and their reported background-corrected fluorescence.
READOUT LABEL: background-corrected fluorescence

1. TTTTTTGATGCTGCTGATGCTTTTTTTTTTTTTTTCAACA [ACAAC]
0.489
2. TTTTTTCATGATGCGCATCATTTTTTTTTTTTTTTGCATG [GTACG]
0.508
3. TTTTTTCATGCTGCTGATGCTTTTTTTTTTTTTTTGAACA [ACAAG]
0.505
